Just for reference, ChEMBL document CHEMBL3997818 is where these values come from.

ASSAY TEXT: Selectivity index, ratio of TC50 for MDCK cells to IC50 for Influenza B virus infected in MDCK cells
Type: toxicity, cell-based
STUDY CONDITIONS: dog, read-out: Selectivity Index
Quick reference for selectivity ratio among some compounds
PROPERTY MEASURED: selectivity ratio

COMPOUND	PROPERTY MEASURED	VALUE OBSERVED
C=C(C(=O)OC)[C@@H]1CC[C@H](C)[C@H]2C(=C(C)C(=O)[C@@H]2C(O)c2cc(F)cc(F)c2)C1 (single isomer, unassigned)	selectivity ratio	1.7
C=C(C(=O)OC)[C@@H]1CC[C@H](C)[C@H]2C(=C(C)C(=O)[C@@H]2C(O)c2ccncc2)C1 (single isomer, unassigned)	selectivity ratio	4.3
NC(=O)c1ncn([C@@H]2O[C@H](CO)[C@@H](O)[C@H]2O)n1 [RIBAVIRIN]	selectivity ratio	1400
C=C(C(=O)OC)[C@@H]1CC[C@H](C)[C@H]2C(=C(C)C(=O)[C@@H]2[C@H](O)/C=C(\C)CCC=C(C)C)C1	selectivity ratio	3
C=C(C(=O)O)[C@@H]1CC[C@H](C)[C@@H]2CC(=O)C(C)=C2C1 [PECHUELOIC ACID]	selectivity ratio	10
C=C(C(=O)OC)[C@@H]1CC[C@H](C)[C@H]2C(=C(C)C(=O)[C@@H]2C(O)c2ccc([N+](=O)[O-])s2)C1 (single isomer, unassigned)	selectivity ratio	2.1
